# experiment-summary: Photochromic PMMA cast film: initial coloration density, maximum absorption wavelength and fatigue life in xenon fadeometer (Example 9)
# Type: physicochemical
# experimental-context: PMMA cast film 0.1 mm, xenon light
Each item that follows carries a reported λmax.
measurement-label: λmax (nm)

[[record]]
molecule = "N#CCN1C(=O)C2=C(C3CC3Oc3ccccc3)c3ccoc3C3(C4CCC3CC4)C2C1=O (stereo not drawn) [(22)]"
units_of_measure = "nm"
endpoint_value = 554

[[record]]
molecule = "CC1=C2C(=O)N(CCCc3ccc4cc(N(C)C)ccc4c3)C(=O)C2C2(c3scc([N+](=O)[O-])c31)C1CC3CC(C1)CC2C3 (stereo not drawn) [(E), reference compound]"
units_of_measure = "nm"
endpoint_value = 535

[[record]]
molecule = "CC(=O)CN1C(=O)C2=C(C3CC3C)c3cc(-c4ccccc4)sc3C3(C4CCC3CC4)C2C1=O (stereo not drawn) [(10)]"
units_of_measure = "nm"
endpoint_value = 610

[[record]]
molecule = "O=C1OC(=O)C2C1=C(C1CC1)c1c(sc3ccccc13)C21C2CCC1CC2 (stereo not drawn) [(49)]"
units_of_measure = "nm"
endpoint_value = 564

[[record]]
molecule = "CCOC1CC1C1=C2C(=O)N(C(C#N)CC)C(=O)C2C2(c3sc(OC)c(C)c31)C1CC3CC(C1)CC2C3 (stereo not drawn) [(36)]"
units_of_measure = "nm"
endpoint_value = 576

[[record]]
molecule = "COc1cc(OC)c2c(c1)C(C1C(C)(C)C1(C)C)=C1C(=O)N(Cc3ccc4ccccc4c3)C(=O)C1C21C2CCC1CC2 (stereo not drawn) [(18)]"
units_of_measure = "nm"
endpoint_value = 603

[[record]]
molecule = "CC1=C2C(=O)OC(=O)C2C2(c3sc4c(c31)CCCC4)C1CCCC2CCC1 (stereo not drawn) [(G), reference compound]"
units_of_measure = "nm"
endpoint_value = 585

[[record]]
molecule = "CCn1c2c(c3ccccc31)C(C1CC1)=C1C(=O)OC(=O)C1C21C2CC3CC1CC(C)(C3)C2 (stereo not drawn) [(57)]"
units_of_measure = "nm"
endpoint_value = 559

[[record]]
molecule = "COC(=O)C(C)N1C(=O)C2=C(C3CC3OC(C)(C)C)c3cc(Cl)oc3C3(C4CCCC3(C)CC(C)(C)C4)C2C1=O (stereo not drawn) [(26)]"
units_of_measure = "nm"
endpoint_value = 546

[[record]]
molecule = "CC1=C2C(=O)N(CCCCC(=O)OCCc3ccc4ccccc4c3)C(=O)C2C2(c3sccc31)C1CC3CC(C1)CC2C3 (stereo not drawn) [(B), reference compound]"
units_of_measure = "nm"
endpoint_value = 538

[[record]]
molecule = "Cc1cc2c(s1)C1(C3CC4CC(Cl)(C3)CC1(Cl)C4)C1C(=O)OC(=O)C1=C2C1CC1 (stereo not drawn) [(58)]"
units_of_measure = "nm"
endpoint_value = 554

[[record]]
molecule = "O=C1OC(=O)C2C1=C(C1CC1)c1c(sc3c1CCCC3)C21C2CCCC1CCC2 (stereo not drawn) [(54)]"
units_of_measure = "nm"
endpoint_value = 568

[[record]]
molecule = "COC1CC1C1=C2C(=O)N(Cc3ccc4ccccc4c3)C(=O)C2C2(c3c1sc1ccccc31)C1CCC2CC1 (stereo not drawn) [(19)]"
units_of_measure = "nm"
endpoint_value = 524

[[record]]
molecule = "CCOC(=O)C12CC3CC(C1)C1(c4c([N+](=O)[O-])csc4C(C4CC4Br)=C4C(=O)N(CC(F)(F)F)C(=O)C41)C(C(=O)OCC)(C3)C2 (stereo not drawn) [(43)]"
units_of_measure = "nm"
endpoint_value = 509

[[record]]
molecule = "Cc1cc2c(n1C)C1(C3CCCC1CCC3)C1C(=O)OC(=O)C1=C2C1CC1 (stereo not drawn) [(53)]"
units_of_measure = "nm"
endpoint_value = 525

[[record]]
molecule = "COc1cc(OC)c2c(c1)C(C1CC1O)=C1C(=O)N(C3CCC([N+](=O)[O-])CC3)C(=O)C1C21C2CCCC1(Cl)CCC2 (stereo not drawn) [(29)]"
units_of_measure = "nm"
endpoint_value = 588

[[record]]
molecule = "O=C1OC(=O)C2C1=C(C1CC1)c1cc(Br)sc1C21C2CC3CC(C2)CC1C3 (stereo not drawn) [(7)]"
units_of_measure = "nm"
endpoint_value = 529

[[record]]
molecule = "CC1CC1C1=C2C(=O)N(CCCCCc3cccc4ccccc34)C(=O)C2C2(c3sc4c(c31)CCCC4)C1CC3CC(C1)CC2C3 (stereo not drawn) [(48)]"
units_of_measure = "nm"
endpoint_value = 588

[[record]]
molecule = "CCCCC1CC2CCCC(C1)C21c2sc(C)c(CC)c2C(C2C(I)C2I)=C2C(=O)N(CC3CCCCC3C#N)C(=O)C21 (stereo not drawn) [(27)]"
units_of_measure = "nm"
endpoint_value = 553

[[record]]
molecule = "CCC(C(=O)C[N+](=O)[O-])N1C(=O)C2=C(C3CC3)c3cc(OC)cc(OC)c3C3(C4CC5CC(C4)CC3C5)C2C1=O (stereo not drawn) [(45)]"
units_of_measure = "nm"
endpoint_value = 579

[[record]]
molecule = "CCSC1CC1C1=C2C(=O)N(C(CC)COC(=O)OC[N+](=O)[O-])C(=O)C2C2(c3scc([N+](=O)[O-])c31)C1CC3CC2CC(C)(C3)C1 (stereo not drawn) [(37)]"
units_of_measure = "nm"
endpoint_value = 540

[[record]]
molecule = "CCOc1cc2c(s1)C1(C3CCCC1CCC3)C1C(=O)OC(=O)C1=C2C1CC1 (stereo not drawn) [(55)]"
units_of_measure = "nm"
endpoint_value = 545

[[record]]
molecule = "O=C1OC(=O)C2C1=C(C1CC1C(F)(F)F)c1sc(Br)cc1C21C2CCC1CC2 (stereo not drawn) [(50)]"
units_of_measure = "nm"
endpoint_value = 518

[[record]]
molecule = "CC(=O)OCN1C(=O)C2=C(C3CC3)c3sc(Br)cc3C3(C4CC5CC(C4)CC3C5)C2C1=O (stereo not drawn) [(42)]"
units_of_measure = "nm"
endpoint_value = 548

[[record]]
molecule = "COC(=O)CN1C(=O)C2=C(C3CC3)c3ccsc3C3(C4CCC3CC4)C2C1=O (stereo not drawn) [(1)]"
units_of_measure = "nm"
endpoint_value = 549

[[record]]
molecule = "COC(=O)C(C)N1C(=O)C2=C(C3CC3)c3cc(-c4cccc(OC)c4)sc3C3(C4CC5CC(Cl)(C4)CC3(Cl)C5)C2C1=O (stereo not drawn) [(35)]"
units_of_measure = "nm"
endpoint_value = 574

[[record]]
molecule = "CCOC(=O)OCN1C(=O)C2=C(C3CC3c3ccccc3)c3cc(OCC)sc3C3(C4CC5CC(C)(C4)CC3(C)C5)C2C1=O (stereo not drawn) [(41)]"
units_of_measure = "nm"
endpoint_value = 557

[[record]]
molecule = "Cc1cc2c(s1)C1(C3CCC1CC3)C1C(=O)N(C[N+](=O)[O-])C(=O)C1=C2C1CC1 (stereo not drawn) [(8)]"
units_of_measure = "nm"
endpoint_value = 571

[[record]]
molecule = "CC1=C2C(=O)N(CCc3cccc4ccccc34)C(=O)C2C2(c3c1sc1c3CCCC1)C1CCCC2CCC1 (stereo not drawn) [(F), reference compound]"
units_of_measure = "nm"
endpoint_value = 508

[[record]]
molecule = "N#CCOCN1C(=O)C2=C(C3CC3c3ccccc3)c3sccc3C3(C2C1=O)C1(Cl)CCC3(Cl)CC1 (stereo not drawn) [(14)]"
units_of_measure = "nm"
endpoint_value = 552

